- System: IL-1β
- TEST: IL-1β release from human monocytes (LPS-induced, ELISA)
- Type: cell-based
- RUN PARAMETERS: Monocyte; human monocytes, 1 ng/ml LPS, 18 hours; read-out: IC50 LPS-induced IL-β production (monocytes)
MEASURED ATTRIBUTE: IC50 (nM)

(I) C/C=C/[C@@H]1OC(=O)C=C[C@@H]1C(=O)/C=C/C(C)=C/[C@@H](C)CCCCCC [R in formula (I) is CH3]
(II) CCCCCC[C@H](C)/C=C(C)/C=C/C(=O)[C@H]1C=CC(=O)O[C@H]1/C=C/C(=O)O [R in formula (I) is CO2H]
Identify the item whose IC50 is the smaller number: I or II Bench note: the answer is the label of the chosen record.
I

Origin of the recorded values: patent US6784203B1
